This collection of values is drawn from patent US20220195023A1.

target: T1, CSP Protein (Plasmodium falciparum, UniProt Q7K740 19-374); test: SPR, antibody on chip;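 also: antibodies immobilized on a Carterra chip, directly or via anti-human Fc capture, at two spots each, with CSP flowed over at 4-5 concentrations peaking at 0.5-8 µg/mL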
T1 construct: also called circumsporozoite protein; complete CSP protein
T1 sequence (Q7K740 19-374 limits assumed): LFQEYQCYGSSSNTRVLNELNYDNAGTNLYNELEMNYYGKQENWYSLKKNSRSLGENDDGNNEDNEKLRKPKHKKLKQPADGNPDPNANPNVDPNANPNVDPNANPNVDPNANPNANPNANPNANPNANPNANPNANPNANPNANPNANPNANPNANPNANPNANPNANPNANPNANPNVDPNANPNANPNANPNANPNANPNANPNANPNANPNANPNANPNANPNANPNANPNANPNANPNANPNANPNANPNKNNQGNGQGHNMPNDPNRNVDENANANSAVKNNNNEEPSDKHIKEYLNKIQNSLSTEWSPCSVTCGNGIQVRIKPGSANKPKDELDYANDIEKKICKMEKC
pKd: −log10 of the molar value.
Listed next: entries and their corresponding pKd.
observable: pKd

binder	meas value
AB-007035 (antibody, V domains shown) VH: QMQLVESGGGVVQPGRSLRLSCTASGFTFSSYAMHWVRQSPGQGLQWVAVISYHSTNKYYEDSVRGRFTISRDNSKNTLYLQMNSLRAEDTAVYYCARDGYSSSFFDFWGQGTLVTVSS VL: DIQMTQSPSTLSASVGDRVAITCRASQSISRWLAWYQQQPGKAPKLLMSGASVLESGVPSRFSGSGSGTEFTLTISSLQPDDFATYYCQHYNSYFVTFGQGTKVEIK	10.29
AB-007059 (antibody, V domains shown) VH: QMQLVESGGGVVQPGRSLRLSCTASGFTFSTYAMHWVRQSPGQGLQWVAVISYHSTNKYYEDSVRGRFTISRDNSKNTLYLQMNSLRAEDTAVYYCARDGYSSTFFDFWGQGTLVTVSS VL: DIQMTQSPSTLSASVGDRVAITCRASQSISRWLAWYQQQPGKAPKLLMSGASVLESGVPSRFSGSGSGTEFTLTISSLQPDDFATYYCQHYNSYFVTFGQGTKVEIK	8.97
